Values compiled from patent US10047084B2.

Test system: MV-4-11
Assay: CTG cell survival assay, MV-4-11
Format: cell-based
Conditions: Homo sapiens, MV4-11, MV-4-11 cells
Quick list: EC50 per entry.
quantity.name: EC50

Cn1cc(-c2ccc(-c3ccc4ncc5c(c4c3)n([C@H]3CCN(S(C)(=O)=O)C3)c(=O)n5C)cn2)nn1 [Example 45] : < 0.02 µM
CCNC(=O)N1CCC[C@@H](n2c(=O)n(C)c3cnc4ccc(-c5ccc(-c6cnn(C)c6)nc5)cc4c32)C1 [Example 55] : 0.8 µM
Cn1c(=O)n([C@H]2CC[C@H](O)CC2)c2c3cc(-c4ccc(-c5ccccc5)nc4)ccc3ncc21 [Example 25] : < 0.5 µM
Cn1cc(-c2ccc(-c3ccc4ncc5c(c4n3)n([C@H]3CCN(S(C)(=O)=O)C3)c(=O)n5C)cn2)nn1 [Example 50] : < 0.03 µM
Cn1c(=O)n([C@H]2CCN(S(C)(=O)=O)C2)c2c3cc(-c4ccc(-c5ccccc5)nc4)ccc3ncc21 [Example 30] : < 0.1 µM
Cn1cc(-c2ccc(-c3ccc4ncc5c(c4c3)n(C3CCN(S(C)(=O)=O)C3)c(=O)n5C)cn2)cn1 (stereo not shown) [Example 6] : < 0.2 µM
CCN1CCC(n2c(=O)n(C)c3cnc4ccc(-c5ccc(-c6cnn(C)c6)nc5)cc4c32)C1 (stereo not shown) [Example 10] : < 1 µM
